# Measured Target: T1, human PCSK9 (proprotein convertase subtilisin kexin type 9) (human, UniProt Q8NBP7 31-692)
# T1 construct: Directly immobilized (SPR ProteOn), biotinylated (BLI), or in solution, depending on the assay; also called hPCSK9
# T1 sequence (Q8NBP7 31-692 limits assumed): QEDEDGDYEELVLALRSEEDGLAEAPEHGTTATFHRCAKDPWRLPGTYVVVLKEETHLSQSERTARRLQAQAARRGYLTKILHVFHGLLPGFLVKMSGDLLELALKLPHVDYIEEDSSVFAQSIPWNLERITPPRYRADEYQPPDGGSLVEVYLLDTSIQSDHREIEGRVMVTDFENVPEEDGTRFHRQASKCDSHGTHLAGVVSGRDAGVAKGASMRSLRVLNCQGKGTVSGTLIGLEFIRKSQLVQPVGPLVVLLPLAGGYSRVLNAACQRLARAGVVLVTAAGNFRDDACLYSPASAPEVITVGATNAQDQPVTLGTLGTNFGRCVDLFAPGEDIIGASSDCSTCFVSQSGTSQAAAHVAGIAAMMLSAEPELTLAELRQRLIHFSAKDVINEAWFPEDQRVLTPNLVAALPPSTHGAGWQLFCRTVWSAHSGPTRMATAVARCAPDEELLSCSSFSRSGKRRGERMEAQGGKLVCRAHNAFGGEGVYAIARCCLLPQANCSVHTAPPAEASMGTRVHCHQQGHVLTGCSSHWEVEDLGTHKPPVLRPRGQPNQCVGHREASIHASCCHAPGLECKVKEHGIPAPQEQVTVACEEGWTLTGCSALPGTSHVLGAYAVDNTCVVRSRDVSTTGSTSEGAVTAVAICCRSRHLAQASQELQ
# Assay Summary: BLI, biotinylated hPCSK9 on sensor tips
Value Kind: kon (M⁻¹ s⁻¹)

Binder | kon [M⁻¹ s⁻¹]
2011H05 (designed binder, Anti-PCSK9 Adnectin, His6-tagged; also called ATI001091) MGVSDVPRDLEVVAATPTSLLISWVPSSHAYGYYRITYGETGGNSPVQEFTVPVGVGTATISGLKPGVDYTITVYAVEYAFEGAGYYHRPISINYRTEIDKPSQHHHHHH | 286000
2382H10 (designed binder, Anti-PCSK9 Adnectin, His6-tagged) MGVSDVPRDLEVVAATPTSLLISWDAPAGGYGYYRITYGETGGNSPVQEFTVPVSKGTATISGLKPGVDYTITVYAVEFDFPGSGYYHRPISINYRTEIDKPSQHHHHHH | 288000
